I'd be grateful if you could share measured Population Fragmented Nuclei (%) for these entries.
# System: Fibroblast
# Method Summary: Multiplex assay against human fibroblast
# Format: toxicity, cell-based
# Assay Context: 12 h, 10 µM, compound concentration 10 uM, replicate 1
# value in %; strip the unit string

In: Fill in reported Population Fragmented Nuclei (%) for this entry: Cc1ccc(C)c(Oc2ccncc2C(=O)N2CCN(C3CC3)c3ccccc32)c1
Out: 27

In: Fill in reported Population Fragmented Nuclei (%) for this entry: CC(C)OC(=O)N1CCC(Oc2ncnc3c2cnn3-c2ccc(S(C)(=O)=O)cc2F)CC1
Out: 21

In: Fill in reported Population Fragmented Nuclei (%) for this entry: COc1cc(Nc2nccc(-c3cnn4nc(OC)ccc34)n2)cc(C(F)(F)F)c1
Out: 66

In: Fill in reported Population Fragmented Nuclei (%) for this entry: Cc1ccc2c(c1)c1c(n2CCc2ccc(C)nc2)CCN(C)C1 [LATREPIRDINE]
Out: 29

In: Fill in reported Population Fragmented Nuclei (%) for this entry: COc1cc2ncn(-c3cc(OCc4ccccc4C(F)(F)F)c(C(N)=O)s3)c2cc1OC [GW843682X]
Out: 18

In: Fill in reported Population Fragmented Nuclei (%) for this entry: CC(C)CC(=O)Nc1[nH]nc2c1CN(C(=O)C1CCN(C)CC1)C2(C)C
Out: 23

In: Fill in reported Population Fragmented Nuclei (%) for this entry: COc1ccccc1CN[C@H]1C2CCN(CC2)[C@H]1C(c1ccccc1)c1ccccc1
Out: 29

###

# Test system: HEK-293T
# Method Summary: Multiplex assay against HEK293T
# Format: toxicity, cell-based
# Assay Context: human, 12 h, 10 µM, compound concentration 10 uM, replicate 1
I'd be grateful if you could share measured Population Mitochondria Different-Phenotype (%) for these entries.
# value in %; strip the unit string

In: Under HEK-293T, report Population Mitochondria Different-Phenotype (%) for CC(C)c1noc(N2CCC(COc3ccc(-c4ccc(S(C)(=O)=O)cc4)nc3)CC2)n1
Out: 68

In: Under HEK-293T, report Population Mitochondria Different-Phenotype (%) for CNC(=O)Nc1ccc(-c2nc(N3CC4CCC(C3)O4)c3cnn(C4CCC5(CC4)OCCO5)c3n2)cc1
Out: 88

In: Under HEK-293T, report Population Mitochondria Different-Phenotype (%) for CC(C)NC(=O)N1CC[C@H](NC2=Nc3cc(F)ccc3N(CC(F)F)c3ccc(Cl)cc32)C1
Out: 91

###

I'd be grateful if you could share measured Population Healthy Nuclei (%) for these entries.
# Tested on: HEK-293T
# Method Summary: Multiplex assay against HEK293T
# Assay type: toxicity, cell-based
# Assay Context: human, 48 h, 1 µM, compound concentration 1 uM, replicate 2
# value in %; strip the unit string

In: Fill in reported Population Healthy Nuclei (%) for this entry: Cl.O=C(O)c1cc(-c2ccc(C3CCNCC3)cc2)c2ccc(-c3ccc(C(F)(F)F)cc3)cc2c1
Out: 82

In: Fill in reported Population Healthy Nuclei (%) for this entry: CC(C)OC(=O)N1CCC(Oc2ncnc3c2cnn3-c2ccc(S(C)(=O)=O)cc2F)CC1
Out: 79

In: Fill in reported Population Healthy Nuclei (%) for this entry: CC(C)c1noc(N2CCC(COc3ccc(-c4ccc(S(C)(=O)=O)cc4)nc3)CC2)n1
Out: 80
